Ref: ChEMBL document CHEMBL1158303

# Tested on: Prevotella melaninogenica
# measurementDescription: Antibacterial activity against Prevotella melaninogenica 25845 by broth dilution method
# Format: functional
observedProperty: MIC (µg/mL)

- CC(C)CC(c1c(O)c(C=O)c(O)c(C=O)c1O)[C@@H]1CC[C@@](C)(O)[C@@H]2C[C@H](C(C)(C)O)CC[C@]21C (stereo partly drawn): 12.5
- CC(C)C[C@@H](c1c(O)c(C=O)c(O)c(C=O)c1O)[C@@]1(C)CC[C@H]2C1=C[C@H](C(C)(C)O)CC[C@H]2C: 1.56
- CC(C)C[C@H](c1c(O)c(C=O)c(O)c(C=O)c1O)[C@@]1(C)CC[C@@H]2[C@@H]1[C@H]1[C@@H](CC[C@@]2(C)O)C1(C)C: 3.13

====

Each item that follows carries a reported inhibition.
# Test system: Streptococcus sobrinus
# measurementDescription: Inhibition of Streptococcus sobrinus glucosyltransferase assessed as blockade of adherent water insoluble glucan synthesis at 100 ug/mL
observedProperty: inhibition (%)

* O=C(O[C@@H]1Cc2c(O)cc(O)cc2O[C@@H]1c1cc(O)c(O)c(O)c1)c1cc(O)c(O)c(O)c1 | 26.5
* C=C1CC[C@@H]([C@H](CC(C)C)c2c(O)c(C=O)c(O)c(C=O)c2O)[C@]2(C)CC[C@@H](C(C)(C)O)C[C@@H]12 [MACROCARPAL H] | 97.6
* CC(C)CC(c1c(O)c(C=O)c(O)c(C=O)c1O)[C@@H]1CC[C@@](C)(O)[C@@H]2C[C@H](C(C)(C)O)CC[C@]21C (stereo partly drawn) [MACROCARPAL J] | 77.1

====

# System: Streptococcus sobrinus
# measurementDescription: Inhibition of Streptococcus sobrinus glucosyltransferase assessed as blockade of adherent water insoluble glucan synthesis at 10 ug/mL
Each item that follows carries a reported inhibition.
observedProperty: inhibition

* CC(C)CC(c1c(O)c(C=O)c(O)c(C=O)c1O)[C@@H]1CC[C@@](C)(O)[C@@H]2C[C@H](C(C)(C)O)CC[C@]21C (some centres undefined) | 29.7%
* CC(C)C[C@@H](c1c(O)c(C=O)c(O)c(C=O)c1O)[C@@]1(C)CC[C@@H]2[C@@H]1[C@H]1[C@@H](CC[C@@]2(C)O)C1(C)C | 75.4%
* CC(C)C[C@H](c1c(O)c(C=O)c(O)c(C=O)c1O)[C@@H]1CC[C@@](C)(O)[C@@H]2C[C@H](C(C)(C)O)CC[C@]21C | 26.3%
* O=C(O[C@@H]1Cc2c(O)cc(O)cc2O[C@@H]1c1cc(O)c(O)c(O)c1)c1cc(O)c(O)c(O)c1 | 10.5%
* CC(C)C[C@@H](c1c(O)c(C=O)c(O)c(C=O)c1O)[C@@]1(C)CC[C@H]2C1=C[C@H](C(C)(C)O)CC[C@H]2C | 78.2%
* C=C1CC[C@@H]([C@H](CC(C)C)c2c(O)c(C=O)c(O)c(C=O)c2O)[C@]2(C)CC[C@@H](C(C)(C)O)C[C@@H]12 | 64%
* CC(=O)CC[C@@H]1[C@H]([C@H]2C(=O)CC[C@]2(C)C(CC(C)C)c2c(O)c(C=O)c(O)c(C=O)c2O)C1(C)C (some centres undefined) | 44%
* CC(C)C[C@H](c1c(O)c(C=O)c(O)c(C=O)c1O)[C@@]1(C)CC[C@@H]2[C@@H]1[C@H]1[C@@H](CC[C@@]2(C)O)C1(C)C | 67.6%
* C=C1CC[C@@H]2[C@H]([C@H]3[C@H]1CC[C@]3(C)[C@@H](CC(C)C)c1c(O)c(C=O)c(O)c(C=O)c1O)C2(C)C | 92.6%

====

Each item that follows carries a reported MIC.
# Tested on: Streptococcus sobrinus
# measurementDescription: Antibacterial activity against Streptococcus sobrinus B13 by broth dilution method
# Format: functional
observedProperty: MIC (µg/mL)

• CC(C)C[C@@H](c1c(O)c(C=O)c(O)c(C=O)c1O)[C@@]1(C)CC[C@H]2C1=C[C@H](C(C)(C)O)CC[C@H]2C = 0.78
• Cc1ccc(C(C)C)c(O)c1 = 400
• CC(C)C[C@H](c1c(O)c(C=O)c(O)c(C=O)c1O)[C@@]1(C)CC[C@@H]2[C@@H]1[C@H]1[C@@H](CC[C@@]2(C)O)C1(C)C = 3.13

====

# Test system: Streptococcus sobrinus
# measurementDescription: Inhibition of Streptococcus sobrinus glucosyltransferase assessed as blockade of adherent water insoluble glucan synthesis at 1 ug/mL
observedProperty: inhibition (%)

• C=C1CC[C@@H]2[C@H]([C@H]3[C@H]1CC[C@]3(C)[C@@H](CC(C)C)c1c(O)c(C=O)c(O)c(C=O)c1O)C2(C)C = 18.9
• CC(C)C[C@H](c1c(O)c(C=O)c(O)c(C=O)c1O)[C@@]1(C)CC[C@@H]2[C@@H]1[C@H]1[C@@H](CC[C@@]2(C)O)C1(C)C = 10.1
• CC(C)C[C@H](c1c(O)c(C=O)c(O)c(C=O)c1O)[C@@H]1CC[C@@](C)(O)[C@@H]2C[C@H](C(C)(C)O)CC[C@]21C = 0
• CC(C)CC(c1c(O)c(C=O)c(O)c(C=O)c1O)[C@@H]1CC[C@@](C)(O)[C@@H]2C[C@H](C(C)(C)O)CC[C@]21C (some centres undefined) = 6.9
• CC(C)C[C@@H](c1c(O)c(C=O)c(O)c(C=O)c1O)[C@@]1(C)CC[C@@H]2[C@@H]1[C@H]1[C@@H](CC[C@@]2(C)O)C1(C)C = 9.7
• C=C1CC[C@@H]([C@H](CC(C)C)c2c(O)c(C=O)c(O)c(C=O)c2O)[C@]2(C)CC[C@@H](C(C)(C)O)C[C@@H]12 = 2.9
• CC(=O)CC[C@@H]1[C@H]([C@H]2C(=O)CC[C@]2(C)C(CC(C)C)c2c(O)c(C=O)c(O)c(C=O)c2O)C1(C)C (some centres undefined) = 4.4
• CC(C)C[C@@H](c1c(O)c(C=O)c(O)c(C=O)c1O)[C@@]1(C)CC[C@H]2C1=C[C@H](C(C)(C)O)CC[C@H]2C = 17.3
• O=C(O[C@@H]1Cc2c(O)cc(O)cc2O[C@@H]1c1cc(O)c(O)c(O)c1)c1cc(O)c(O)c(O)c1 = 3

====

Each item that follows carries a reported MIC.
# Test system: Streptococcus sobrinus
# measurementDescription: Antibacterial activity against Streptococcus sobrinus B13 by broth dilution method
# Assay type: functional
observedProperty: MIC (mg/L)

* C=C1CC[C@@H]2[C@H]([C@H]3[C@H]1CC[C@]3(C)[C@@H](CC(C)C)c1c(O)c(C=O)c(O)c(C=O)c1O)C2(C)C [MACROCARPAL C] | 1.56
* CC(=O)CC[C@@H]1[C@H]([C@H]2C(=O)CC[C@]2(C)C(CC(C)C)c2c(O)c(C=O)c(O)c(C=O)c2O)C1(C)C (stereo partly specified) [EUCALYPTONE] | 25
* CC(C)CC(c1c(O)c(C=O)c(O)c(C=O)c1O)[C@@H]1CC[C@@](C)(O)[C@@H]2C[C@H](C(C)(C)O)CC[C@]21C (stereo partly specified) [MACROCARPAL J] | 100
* CC(C)C[C@H](c1c(O)c(C=O)c(O)c(C=O)c1O)[C@@H]1CC[C@@](C)(O)[C@@H]2C[C@H](C(C)(C)O)CC[C@]21C [MACROCARPAL I] | 100
* C=C1CC[C@@H]([C@H](CC(C)C)c2c(O)c(C=O)c(O)c(C=O)c2O)[C@]2(C)CC[C@@H](C(C)(C)O)C[C@@H]12 [MACROCARPAL H] | 3.13
* CC(C)C[C@@H](c1c(O)c(C=O)c(O)c(C=O)c1O)[C@@]1(C)CC[C@@H]2[C@@H]1[C@H]1[C@@H](CC[C@@]2(C)O)C1(C)C [MACROCARPAL A] | 1.56

====

# System: Prevotella melaninogenica
# measurementDescription: Antibacterial activity against Prevotella melaninogenica 25845 by broth dilution method
# Assay type: functional
Each item that follows carries a reported MIC.
observedProperty: MIC (µg/mL)

• CC(C)C[C@H](c1c(O)c(C=O)c(O)c(C=O)c1O)[C@@H]1CC[C@@](C)(O)[C@@H]2C[C@H](C(C)(C)O)CC[C@]21C = 12.5
• C=C1CC[C@@H]([C@H](CC(C)C)c2c(O)c(C=O)c(O)c(C=O)c2O)[C@]2(C)CC[C@@H](C(C)(C)O)C[C@@H]12 = 3.13
• CC(C)C[C@@H](c1c(O)c(C=O)c(O)c(C=O)c1O)[C@@]1(C)CC[C@@H]2[C@@H]1[C@H]1[C@@H](CC[C@@]2(C)O)C1(C)C = 0.78

====

# System: Capnocytophaga ochracea
# measurementDescription: Antibacterial activity against Capnocytophaga ochracea 33596 by broth dilution method
# Format: functional
Please use Yes for MIC under 3 µg/mL and No for everything else, ties included.

- CC(C)C[C@H](c1c(O)c(C=O)c(O)c(C=O)c1O)[C@@]1(C)CC[C@@H]2[C@@H]1[C@H]1[C@@H](CC[C@@]2(C)O)C1(C)C [MACROCARPAL B]: Yes
- CC(C)CC(c1c(O)c(C=O)c(O)c(C=O)c1O)[C@@H]1CC[C@@](C)(O)[C@@H]2C[C@H](C(C)(C)O)CC[C@]21C (some centres undefined) [MACROCARPAL J]: No
- C=C1CC[C@@H]([C@H](CC(C)C)c2c(O)c(C=O)c(O)c(C=O)c2O)[C@]2(C)CC[C@@H](C(C)(C)O)C[C@@H]12 [MACROCARPAL H]: Yes
- CC(=O)CC[C@@H]1[C@H]([C@H]2C(=O)CC[C@]2(C)C(CC(C)C)c2c(O)c(C=O)c(O)c(C=O)c2O)C1(C)C (some centres undefined) [EUCALYPTONE]: No
- CC(C)C[C@@H](c1c(O)c(C=O)c(O)c(C=O)c1O)[C@@]1(C)CC[C@H]2C1=C[C@H](C(C)(C)O)CC[C@H]2C [MACROCARPAL D]: Yes
- CC(C)C[C@H](c1c(O)c(C=O)c(O)c(C=O)c1O)[C@@H]1CC[C@@](C)(O)[C@@H]2C[C@H](C(C)(C)O)CC[C@]21C [MACROCARPAL I]: No
- CC(C)C[C@@H](c1c(O)c(C=O)c(O)c(C=O)c1O)[C@@]1(C)CC[C@@H]2[C@@H]1[C@H]1[C@@H](CC[C@@]2(C)O)C1(C)C [MACROCARPAL A]: Yes
- Cc1ccc(C(C)C)c(O)c1 [THYMOL]: No
- C=C1CC[C@@H]2[C@H]([C@H]3[C@H]1CC[C@]3(C)[C@@H](CC(C)C)c1c(O)c(C=O)c(O)c(C=O)c1O)C2(C)C [MACROCARPAL C]: Yes
